# TEST_METHOD_NOTES: yeast display, Sf9 membrane polyspecificity reagent, FACS + sequencing; frameworks hold sequencing errors
MEASUREMENT_NAME: polyreactivity (PSR sort gate)

Here are 5 sequences together with their reported answers.
[[record]]
polymer_sequence = "QVQLVASGGGLVHAGGSLRLSCAASGRIFTHNAMGWSRQAPGKEREMVAAITSGGRTTYADSVKGRFTISRDNAKNTVYFQMNSLKPEDTAVYYCNADTGLGSLDFDKRDYWGQGTQVTVSS"
result = "low polyreactivity"

[[record]]
polymer_sequence = "QVQLVESGGGLVQAGGSLRLSCAASGRTFYGYGMGWYRQAAGKEREFVAAISYSGGSTYYADSVKGRFTISRDNAKNTVYLQMNSLKPEDTAVYYCAARNRGSGFYYWGQGTQVTVSS"
result = "high polyreactivity"

[[record]]
polymer_sequence = "QVQLVESGGGLVQAGGSLRLSCAASGRTFPSYTMGWYRQAPGKERELVAAITWTGGSTYYADSVKGRFTISRDNAKNTVYLQINSLKREDTAVYYCADYEYWGQGTQVTVSS"
result = "low polyreactivity"

[[record]]
polymer_sequence = "QVQLVESGGGLVQAGGSLRLSCAASGSTFTKNAMGWYRQAPGKERELVADISFSGGSTYYADSVKGRFTISRDNAKNTVYLQTNRLKPEDTAVYDCAADRHRALPRFDDWGQGTQVTVAS"
result = "low polyreactivity"

[[record]]
polymer_sequence = "QVQLVESGGGLVQAGGSLRLSCAASGRTFTIYARGWYRQAPGKERELVAAITSGGSTYYADSVKGRFTISRDNAKNTVYLQMNSLKPEDTAVYYCDRGYAVSLVSRYDYWGQGTQVTVSS"
result = "low polyreactivity"


// `QVQLVESGGGLVQAGGSLRLSCAASGFTFKFYAMGWYRQAPGKEREFVAAISHSGGRTYYADSVKGRFTISSDNAKNTVYLQLNILKPEDTAFYYCAAAEGGGLVTYDYWGQGTQVTVSS` : polyreactivity (PSR sort gate) value = low polyreactivity

// `QVQLVESGAGLVQAGGRLRLSCGASGRIFGRNAMGLYRQGPGKERELVAAISYSGGSTYYADSVKGRFTISRDNAKNTVYLQMNSLKPEDTAVYYCAARYTRSGYYWGQGTQVTVSS` : polyreactivity (PSR sort gate) value = high polyreactivity

// `QVQLVESGGGLVQAAGSLRLSCAASGFIFIYNAMGWYRQAPGKERELVAAITGSDGGTFYADSVKGRFTFSRDYAKNTVYLQINSLKPEDTAVYYCHADNGSRQSRDGYESWGQGTQVTVSS` : polyreactivity (PSR sort gate) value = low polyreactivity

// `QVQLVESGGGLVQAVGSLRLSCAASGRIFGYYVMGWYRQAPGKERELVAAITSNGGSTYYADSVKGRFTFSRDNAKNTVYLQMNSLKPEDTAVYYGNKDKRYYRYGYWGQGTQVTVSS` : polyreactivity (PSR sort gate) value = high polyreactivity

// `QVQLVESGGGLVQAGGSLRLSCAASGSIFSVYAMGWYRQAPGKERELVATISGSAGRTYYADSVKGRFTISRDNAKNTVYLQMNSLKPEDTAVYYCAARWYKEYYWGQRTQVTVSS` : polyreactivity (PSR sort gate) value = high polyreactivity

// `QVQLVESGGGLVQAGGSLRLSCAASVRIFPHKAMGWYIQAPGKERELVAAISSNGGSTYYADSVKGRFTISRDNAKNTVYLQMNSLKPEDTAVYYCAKYRYFAGDGDYWGQGTQVTVSS` : polyreactivity (PSR sort gate) value = low polyreactivity

// `QVQLVESGGGLVQAGGSLRLSCAASGSIFVKYAMGWYRQAPGKERELVAAISGSGGSTYYADSVKGRFTISRDNAKNTVYLQMNSLKPEDTAVYYCAAAYHGRHYYWGQGTQVTVSS` : polyreactivity (PSR sort gate) value = high polyreactivity

// `QVQLVESGGGLVQAGGSLRLSCAASGFIFYTYAMGWYRQAPGKERELVAAITWDGGSTYYADSVKGRFTISRDTAKNTVYLQMNSLKPEDTAVYYCNAEYGYIRGNYGYWGQGTQVTVSS` : polyreactivity (PSR sort gate) value = low polyreactivity

// `QVQLVESGGGLVQAGGSLRLSCAASGSIFYPYAMGWYRPAPGKERELVASITINDGSTYYADSVKGRFTISRDNAKNTVYLQMNSLKPEDTAVYYCNVEPVPGFGSEYEYWGQGTQVTVSS` : polyreactivity (PSR sort gate) value = low polyreactivity

// `QVQLVESGGGLVQAGGSLRLSCAASGNTFADYAMGWYSQAPGKERELVADLTFSGGGTYYADSVKGRFTISRDNAKNTVYLQMNSLKPEDTPVYDCNADLDSYVGDEYDHWGQGTQVTVSS` : polyreactivity (PSR sort gate) value = low polyreactivity

// `QVQLVESGGGLVQAGGSLRLSCAASGSIFAKYAMGWYRQAPGKERELVAVITSRGGTYYADSVKGRFTISRDNAKKTVYLQMNSLKPEDTAVYYCAARGGGQPVAYDYWGQGTQVTVSS` : polyreactivity (PSR sort gate) value = high polyreactivity

// `QVQLVESGGGLVQAGGSLRLSCAASGSIFYHYAMGWYIQAPGKERELVAAISWRGASTYYADSVKGRFTISRDNAKNTVYLQMNSLKPEDTAVYYCARLSSSHPLYRDDYWGQGTQVTVSS` : polyreactivity (PSR sort gate) value = high polyreactivity

// `QVQLVESGGGLVQAGGSLRLSCAASGSIFGRYAMGWYRQAPGNERELVAGICSRGTSTYYADSVKGRFTISRDNAKNTVYLQMNSLKPEDTAVYYCNAYPYYIVGSRYDYWGQGTQVTVSS` : polyreactivity (PSR sort gate) value = high polyreactivity

// `QDQHVESGGGLVQAGGSLRLSCDASGFIFPYYVMGWYRQAPGKERELVAGISSGGRTNYADSVKGRFTISRDNAKNTVYLQMISLKPEDTAVYYCNDRWYRYPPRVRLYYWGQGTQVTVSS` : polyreactivity (PSR sort gate) value = high polyreactivity

// `QVQLVESGGGLVQAGGSLRLSCAASGSTFPDYAMGWYRQAPGKERELVAAISGDSDDTYYADSVKGRFTISRDNAKNTVYLQMNSLKPEDTAVYYCAARRGRAVYSVAYDYWGQATQVTVSS` : polyreactivity (PSR sort gate) value = high polyreactivity

// `QDQLVESGGGLVQEGGSLRLSCAASGSIFARNAMGWYRQAPGKERELVAAISRSGGSTYYADSVKGRFTISRDNAKNTVYVQMNSMKPEDTAVYFCNAVQRYSQGDYWGHGTQVTVSS` : polyreactivity (PSR sort gate) value = high polyreactivity

All figures here come from the nanobody polyreactivity screen of Harvey et al. (2022).
